cond: in toluene, 338.15 K
Each entry below lists one item and its recorded solubility (mole fraction) value.

{"columns": ["structure_smiles", "solubility (mole fraction)"],
 "data": [
  ["CCCCCCCC[n+]1ccn(C)c1.O=[N+]([O-])[O-]", 0.00117],
  ["CCCCCC[n+]1ccn(C)c1.O=[N+]([O-])[O-]", 0.00106]
]}

---

Each entry below lists one item and its recorded solubility (mole fraction) value.
cond: in toluene, 343.15 K

{"columns": ["structure_smiles", "solubility (mole fraction)"],
 "data": [
  ["CCCCCC[n+]1ccn(C)c1.O=[N+]([O-])[O-]", 0.00123],
  ["CCCCCCCC[n+]1ccn(C)c1.O=[N+]([O-])[O-]", 0.00133]
]}

---

cond: in benzene, 343.15 K
assay_metric: solubility (mole fraction)

{"columns": ["structure_smiles", "reported"],
 "data": [
  ["CCCCCC[n+]1ccn(C)c1.O=[N+]([O-])[O-]", 0.000962],
  ["CCCCCCCC[n+]1ccn(C)c1.O=[N+]([O-])[O-]", 0.00111]
]}

---

Each entry below lists one item and its recorded solubility (mole fraction) value.
cond: in n-octane, 323.15 K

{"columns": ["structure_smiles", "solubility (mole fraction)"],
 "data": [
  ["CCCCCCCC[n+]1ccn(C)c1.O=[N+]([O-])[O-]", 0.00101],
  ["CCCCCC[n+]1ccn(C)c1.O=[N+]([O-])[O-]", 0.000421]
]}

---

cond: in cyclohexane, 308.15 K
Each entry below lists one item and its recorded solubility (mole fraction) value.

{"columns": ["structure_smiles", "solubility (mole fraction)"],
 "data": [
  ["CCCCCCCC[n+]1ccn(C)c1.O=[N+]([O-])[O-]", 0.00124],
  ["CCCCCC[n+]1ccn(C)c1.O=[N+]([O-])[O-]", 0.000446]
]}

---

cond: in o-xylene, 313.15 K
assay_metric: solubility (mole fraction)

{"columns": ["structure_smiles", "reported"],
 "data": [
  ["CCCCCC[n+]1ccn(C)c1.O=[N+]([O-])[O-]", 0.00173],
  ["CCCCCCCC[n+]1ccn(C)c1.O=[N+]([O-])[O-]", 0.00587]
]}

---

cond: in benzene, 298.15 K

{"columns": ["structure_smiles", "solubility (mole fraction)"],
 "data": [
  ["CCCCCCCC[n+]1ccn(C)c1.O=[N+]([O-])[O-]", 0.000303],
  ["CCCCCC[n+]1ccn(C)c1.O=[N+]([O-])[O-]", 0.000219]
]}

---

Each entry below lists one item and its recorded solubility (mole fraction) value.
cond: in cyclohexane, 333.15 K

{"columns": ["structure_smiles", "solubility (mole fraction)"],
 "data": [
  ["CCCCCC[n+]1ccn(C)c1.O=[N+]([O-])[O-]", 0.000857],
  ["CCCCCCCC[n+]1ccn(C)c1.O=[N+]([O-])[O-]", 0.00244]
]}

---

cond: in o-xylene, 338.15 K

{"columns": ["structure_smiles", "solubility (mole fraction)"],
 "data": [
  ["CCCCCC[n+]1ccn(C)c1.O=[N+]([O-])[O-]", 0.0024],
  ["CCCCCCCC[n+]1ccn(C)c1.O=[N+]([O-])[O-]", 0.00733]
]}

---

cond: in n-octane, 318.15 K
Each entry below lists one item and its recorded solubility (mole fraction) value.

{"columns": ["structure_smiles", "solubility (mole fraction)"],
 "data": [
  ["CCCCCC[n+]1ccn(C)c1.O=[N+]([O-])[O-]", 0.00038],
  ["CCCCCCCC[n+]1ccn(C)c1.O=[N+]([O-])[O-]", 0.000866]
]}

---

cond: in o-xylene, 323.15 K

{"columns": ["structure_smiles", "solubility (mole fraction)"],
 "data": [
  ["CCCCCCCC[n+]1ccn(C)c1.O=[N+]([O-])[O-]", 0.00646],
  ["CCCCCC[n+]1ccn(C)c1.O=[N+]([O-])[O-]", 0.00198]
]}

---

cond: in m-xylene, 323.15 K
assay_metric: solubility (mole fraction)

{"columns": ["structure_smiles", "reported"],
 "data": [
  ["CCCCCCCC[n+]1ccn(C)c1.O=[N+]([O-])[O-]", 0.00725],
  ["CCCCCC[n+]1ccn(C)c1.O=[N+]([O-])[O-]", 0.00413]
]}

---

cond: in n-hexane, 293.15 K
Each entry below lists one item and its recorded solubility (mole fraction) value.

{"columns": ["structure_smiles", "solubility (mole fraction)"],
 "data": [
  ["CCCCCC[n+]1ccn(C)c1.O=[N+]([O-])[O-]", 0.000362],
  ["CCCCCCCC[n+]1ccn(C)c1.O=[N+]([O-])[O-]", 0.00078]
]}

---

Each entry below lists one item and its recorded solubility (mole fraction) value.
cond: in n-pentane, 298.15 K
assay_metric: solubility (mole fraction)

{"columns": ["structure_smiles", "reported"],
 "data": [
  ["CCCCCC[n+]1ccn(C)c1.O=[N+]([O-])[O-]", 0.000534],
  ["CCCCCCCC[n+]1ccn(C)c1.O=[N+]([O-])[O-]", 0.00127]
]}

---

cond: in toluene, 308.15 K

{"columns": ["structure_smiles", "solubility (mole fraction)"],
 "data": [
  ["CCCCCC[n+]1ccn(C)c1.O=[N+]([O-])[O-]", 0.00039],
  ["CCCCCCCC[n+]1ccn(C)c1.O=[N+]([O-])[O-]", 0.0005]
]}

---

cond: in p-xylene, 338.15 K

{"columns": ["structure_smiles", "solubility (mole fraction)"],
 "data": [
  ["CCCCCCCC[n+]1ccn(C)c1.O=[N+]([O-])[O-]", 0.00508],
  ["CCCCCC[n+]1ccn(C)c1.O=[N+]([O-])[O-]", 0.00182]
]}

---

cond: in n-heptane, 303.15 K

{"columns": ["structure_smiles", "solubility (mole fraction)"],
 "data": [
  ["CCCCCCCC[n+]1ccn(C)c1.O=[N+]([O-])[O-]", 0.000488]
]}

---

cond: in p-xylene, 328.15 K

{"columns": ["structure_smiles", "solubility (mole fraction)"],
 "data": [
  ["CCCCCC[n+]1ccn(C)c1.O=[N+]([O-])[O-]", 0.00155],
  ["CCCCCCCC[n+]1ccn(C)c1.O=[N+]([O-])[O-]", 0.00458]
]}

---

cond: in n-heptane, 308.15 K

{"columns": ["structure_smiles", "solubility (mole fraction)"],
 "data": [
  ["CCCCCCCC[n+]1ccn(C)c1.O=[N+]([O-])[O-]", 0.000586]
]}

---

cond: in n-heptane, 298.15 K
assay_metric: solubility (mole fraction)

{"columns": ["structure_smiles", "assay_metric", "reported"],
 "data": [
  ["CCCCCCCC[n+]1ccn(C)c1.O=[N+]([O-])[O-]", "solubility (mole fraction)", 0.000407]
]}

---

cond: in p-xylene, 318.15 K

{"columns": ["structure_smiles", "solubility (mole fraction)"],
 "data": [
  ["CCCCCC[n+]1ccn(C)c1.O=[N+]([O-])[O-]", 0.00128],
  ["CCCCCCCC[n+]1ccn(C)c1.O=[N+]([O-])[O-]", 0.00408]
]}

---

cond: in p-xylene, 298.15 K

{"columns": ["structure_smiles", "solubility (mole fraction)"],
 "data": [
  ["CCCCCC[n+]1ccn(C)c1.O=[N+]([O-])[O-]", 0.000795],
  ["CCCCCCCC[n+]1ccn(C)c1.O=[N+]([O-])[O-]", 0.00308]
]}

---

cond: in o-xylene, 298.15 K
assay_metric: solubility (mole fraction)

{"columns": ["structure_smiles", "reported"],
 "data": [
  ["CCCCCC[n+]1ccn(C)c1.O=[N+]([O-])[O-]", 0.00133],
  ["CCCCCCCC[n+]1ccn(C)c1.O=[N+]([O-])[O-]", 0.005]
]}

---

cond: in o-xylene, 318.15 K

{"columns": ["structure_smiles", "solubility (mole fraction)"],
 "data": [
  ["CCCCCC[n+]1ccn(C)c1.O=[N+]([O-])[O-]", 0.00187],
  ["CCCCCCCC[n+]1ccn(C)c1.O=[N+]([O-])[O-]", 0.00616]
]}

---

cond: in m-xylene, 308.15 K

{"columns": ["structure_smiles", "solubility (mole fraction)"],
 "data": [
  ["CCCCCC[n+]1ccn(C)c1.O=[N+]([O-])[O-]", 0.00303],
  ["CCCCCCCC[n+]1ccn(C)c1.O=[N+]([O-])[O-]", 0.00605]
]}

---

cond: in cyclohexane, 318.15 K
Each entry below lists one item and its recorded solubility (mole fraction) value.

{"columns": ["structure_smiles", "solubility (mole fraction)"],
 "data": [
  ["CCCCCC[n+]1ccn(C)c1.O=[N+]([O-])[O-]", 0.000592],
  ["CCCCCCCC[n+]1ccn(C)c1.O=[N+]([O-])[O-]", 0.00169]
]}
